Just for reference, PubChem BioAssay (NCI) is where these values come from.

Test system: TK-10 renal
Experiment: NCI-60 one-dose screen, 48 h
Settings: 10 µM unless noted
Method: Growth inhibition of the TK-10 human tumor cell line is measured as a screen for anti-cancer activity. Cells are grown in 96 well plates and exposed to the test compound for 48 hours. Compounds are tested at a single concentration, which is 10^-5 M for most compounds. The reported endpoint is percent growth (GI% or GIPRCNT), where numbers from 0 - 100% represent growth inhibition, and numbers from -100% - 0 represent cell death. For example, a value of 40 represents 60% growth inhibition. […]
This is part of a sample that, as a whole, favours compounds with a hit. Of some 83,000 tested, about 20% had one in any assay. The source made the active and inactive calls. Rule for the calls: active = growth percent below 10; inactive = the rest.
Your response should consist of one outcome taken from active, inactive

Entry `O=C(CSc1nnc(-c2ccc(NC(=O)c3cccnc3)cc2)o1)N[C@@H](Cc1ccc(O)cc1)C(=O)O` : call = ?
inactive

Item: `C=CCn1c(C)nc2cc(Nc3nc(Cl)nc4ccccc34)ccc21`
inactive

Item: `O=C1C=C[C@]2(C[C@@H](c3cccc(C(F)(F)F)c3)O[C@@H](c3cccc(C(F)(F)F)c3)O2)O1`
active

Item: `Cc1cc(NCc2cc(Nc3ccnc4cc(Cl)ccc34)ccc2F)nc(N2CCOCC2)n1`
active

Item: `S=C(c1ccc2c(c1)OCO2)N1CCN(c2ccccc2Cl)CC1`
inactive

Item: `COc1ccc(C(=O)/C=C/c2c(C(F)(F)F)nc3sccn23)cc1OC`
inactive

Item: COc1cc(OC)cc(C2CC(=O)Nc3c2c(C)nn3-c2nc3ccccc3[nH]2)c1 (stereo not given)
inactive

Item: CC(=O)n1c(-c2ccc(Cl)cc2)nc2c(c1=O)C(c1ccc(Cl)cc1)c1sc3c(Cl)cccc3c1O2 (stereo not given)
active

Item: `CCN(CCNc1ccc(C)c2sc3ccccc3c(=O)c12)CC(C)(C)O`
inactive

Item: `COc1ccc(C(=NN=C(N)N)c2ccc(OC)cc2)cc1`
inactive

Item: `COc1cc(/C=N/Nc2ncc(-c3cc4cc5c(cc4o3)OCO5)s2)cc(OC)c1OC`
inactive

Item: `COc1ccc(C(=O)Nn2c(NCC(=O)N3c4ccccc4Sc4ccccc43)nnc2-c2ccc(O)cc2)cc1`
inactive

Item: `CCc1ccccc1-n1c(-c2ccc(Cl)cc2)cc(-c2ccc(Cl)cc2)c(C#N)c1=O`
inactive

Item: `COC1=C(OC)C(=O)C(OC)=C(OC)C1=O`
inactive

Item: `C=C(C)[C@@H]1CC=C2c3sc(-c4ccc(C)cc4)nc3C[C@@H](C)[C@]2(C)C1`
inactive

Item: `COc1nc2c(c(=O)n1C)CN(c1ccccc1)C(=O)CN2C`
inactive

Item: `COC1=CC(=O)C[C@@H](C)[C@]12Oc1c(Cl)c(OC)cc(OC)c1C2=O`
inactive

Item: CCN1C(=O)N(CC)C2C1NN=c1s/c(=C\c3cccs3)c(=O)n12 (stereo not given)
active

Item: COc1cc(C2CC(c3ccc(Nc4ccnc5cc(Cl)ccc45)cc3)=NN2C=O)cc(OC)c1OC (stereo not given)
inactive

Item: CCC(CO)Nc1nc2ccc(Cl)cc2c2ccccc12 (stereo not given)
inactive
